- System: A549
- TEST_SUMMARY: Antiproliferative activity against human A549 cells incubated for 48 hrs by MTT assay
- Format: functional, cell-based
- MEASUREMENT_PARAMETERS: A549, 48 h
# log10 of IC50 per entry
RECORDED_METRIC: log10 of IC50 (log10 of the value in µM)

CPD_SMILES | RECORDED_METRIC | REPORTED
COc1ccc(-c2cn3cc(C4=CCN(S(=O)(=O)C5CCCCC5)CC4)ccc3n2)cc1OC | log10 of IC50 | 0.65
Nc1ccccc1NC(=O)c1cnccn1 | log10 of IC50 | 1.46
COc1ccc(-c2cn3cc(C4=CCN(C(=O)c5cccs5)CC4)ccc3n2)cc1OC | log10 of IC50 | 0.72
COc1ccc(-c2cn3cc(C4=CCN(C(=O)c5ccccc5C(F)(F)F)CC4)ccc3n2)cc1OC | log10 of IC50 | 0.41
COc1ccc(-c2cn3cc(C4=CCN(S(=O)(=O)c5ccccc5)CC4)ccc3n2)cc1OC | log10 of IC50 | 0.88
COc1ccc(-c2cn3cc(C4=CCN(C(=O)C5CCCCC5)CC4)ccc3n2)cc1OC | log10 of IC50 | 0.86
